Entries annotated with measured pIC50
# measured target: PRMT5 (Homo sapiens, UniProt O14744)
# Construct: purchased Viva (custom protein)
# Sequence (O14744 whole entry): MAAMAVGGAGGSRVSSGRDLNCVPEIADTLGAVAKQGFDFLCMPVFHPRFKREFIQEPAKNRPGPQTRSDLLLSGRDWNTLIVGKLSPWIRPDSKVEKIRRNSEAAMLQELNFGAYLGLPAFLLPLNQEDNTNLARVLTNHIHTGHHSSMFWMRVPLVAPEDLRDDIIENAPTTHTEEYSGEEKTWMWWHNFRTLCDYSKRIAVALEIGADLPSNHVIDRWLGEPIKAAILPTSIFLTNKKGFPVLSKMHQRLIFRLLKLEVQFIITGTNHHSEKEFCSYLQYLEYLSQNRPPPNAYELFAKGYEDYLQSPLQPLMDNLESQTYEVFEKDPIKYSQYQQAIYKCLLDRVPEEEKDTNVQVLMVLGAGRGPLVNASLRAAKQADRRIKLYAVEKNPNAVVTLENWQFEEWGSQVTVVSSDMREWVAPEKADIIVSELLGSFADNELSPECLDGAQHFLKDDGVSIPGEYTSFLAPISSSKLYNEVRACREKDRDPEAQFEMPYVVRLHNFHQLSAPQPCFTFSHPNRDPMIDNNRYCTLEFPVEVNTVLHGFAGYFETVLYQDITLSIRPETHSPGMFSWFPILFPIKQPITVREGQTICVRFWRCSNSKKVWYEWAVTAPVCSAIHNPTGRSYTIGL
# Sequence (Q9BQA1 whole entry partner): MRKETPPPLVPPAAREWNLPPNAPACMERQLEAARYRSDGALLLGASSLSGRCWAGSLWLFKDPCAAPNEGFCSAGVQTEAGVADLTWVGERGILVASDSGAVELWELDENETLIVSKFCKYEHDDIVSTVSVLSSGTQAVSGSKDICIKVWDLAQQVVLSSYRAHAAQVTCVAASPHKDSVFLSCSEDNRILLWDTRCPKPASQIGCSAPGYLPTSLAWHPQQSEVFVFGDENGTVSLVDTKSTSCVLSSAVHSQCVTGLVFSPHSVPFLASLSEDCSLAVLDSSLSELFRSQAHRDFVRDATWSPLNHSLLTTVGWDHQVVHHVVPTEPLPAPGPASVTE
# measurement protocol: PRMT5 IC50 assay in the presence of SAM as cofactor
# Format: biochemical
pIC50: −log10 of the molar value.
readout: pIC50

1) CC(=O)N1CCC(Nc2cc(C(=O)NC[C@H](O)CN3CCc4cc(OCc5ocnc5C)ccc4C3)ncn2)CC1 ... 6.30 to 7.30
2) CC(=O)N1CCC(Nc2cccc(C(=O)NC[C@H](O)CN3CCc4cc(OCc5cnco5)ccc4C3)c2)C1 (some centres unmarked) ... 5.30 to 6.30
3) O[C@@H](CNc1nccc(-c2sccc2Br)n1)CN1CCc2cc(OCc3cnco3)ccc2C1 ... 5.30 to 6.30
4) O=C(NC[C@H](O)CN1CCc2cc(OCc3cnco3)ccc2C1)c1ccc2c(c1)CCN(C(=O)c1ccc(Br)cc1)C2 ... 6.30 to 7.30
5) Cc1ncoc1COc1ccc2c(c1)CCN(C[C@@H](O)CNC(=O)c1cc(NC3CC4(CC4)C3)nc(N3CCN(C(=O)C4CC4)CC3)c1)C2 ... 6.30 to 7.30
6) CC(=O)N1CCC(Nc2cc(C(=O)NC[C@H](O)CN3CCc4cc(OCc5ocnc5C)c(F)cc4C3)ncn2)CC1 ... 6.30 to 7.30
7) Cc1ncoc1COc1ccc2c(c1)CCN(C[C@@H](O)CNC(=O)c1cc(NC3CCC3)ccn1)C2 ... 6.30 to 7.30
8) Cc1ncoc1COc1ccc2c(c1)CCN(C[C@@H](O)CNC(=O)c1ccnc(NC3CCN(C(=O)C(C)(C)C)CC3)c1)C2 ... 6.30 to 7.30
